Molecular target: T1, human CNTN4-rabbit Fc (human; rabbit, UniProt Q8IWV2 19-1000, limits assumed)
T1 construct: not shown: rabbit Fc
T1 sequence (looked up): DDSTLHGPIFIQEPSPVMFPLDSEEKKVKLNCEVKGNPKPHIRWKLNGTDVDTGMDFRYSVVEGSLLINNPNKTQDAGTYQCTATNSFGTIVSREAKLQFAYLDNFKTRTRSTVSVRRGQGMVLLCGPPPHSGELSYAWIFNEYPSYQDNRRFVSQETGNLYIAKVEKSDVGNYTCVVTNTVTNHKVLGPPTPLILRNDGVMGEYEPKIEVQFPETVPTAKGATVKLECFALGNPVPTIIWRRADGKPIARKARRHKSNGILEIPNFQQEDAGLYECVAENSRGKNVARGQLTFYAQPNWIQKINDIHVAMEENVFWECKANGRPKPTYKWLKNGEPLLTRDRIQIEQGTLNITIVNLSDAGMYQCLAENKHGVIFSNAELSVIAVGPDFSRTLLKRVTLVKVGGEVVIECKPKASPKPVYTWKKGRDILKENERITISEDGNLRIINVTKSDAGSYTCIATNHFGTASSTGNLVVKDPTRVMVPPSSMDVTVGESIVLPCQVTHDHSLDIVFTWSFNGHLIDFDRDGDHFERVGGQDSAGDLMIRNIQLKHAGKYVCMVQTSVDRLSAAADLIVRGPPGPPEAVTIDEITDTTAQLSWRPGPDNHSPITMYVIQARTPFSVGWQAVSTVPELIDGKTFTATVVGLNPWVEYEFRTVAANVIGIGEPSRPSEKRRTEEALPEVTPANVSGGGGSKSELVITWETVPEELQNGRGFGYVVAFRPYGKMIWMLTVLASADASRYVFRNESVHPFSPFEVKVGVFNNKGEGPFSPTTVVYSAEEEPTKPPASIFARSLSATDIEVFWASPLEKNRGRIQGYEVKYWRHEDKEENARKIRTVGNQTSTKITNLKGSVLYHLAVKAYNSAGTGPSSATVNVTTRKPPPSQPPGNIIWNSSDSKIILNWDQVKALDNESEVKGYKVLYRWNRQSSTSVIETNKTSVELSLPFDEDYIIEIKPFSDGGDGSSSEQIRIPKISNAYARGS
Experiment: ELISA, plate coated with antigen-rabbit Fc, anti-human IgG Fc-HRP
In this section we review reported pEC50 values for a set of binders.
// field semantics: pEC50 = negative decimal log of concentration (mol/L)

[
  {
    "binder": "anti-CNTN4 IgG A13WB4 (antibody, V domains shown, human IgG4 (S228P)) VH: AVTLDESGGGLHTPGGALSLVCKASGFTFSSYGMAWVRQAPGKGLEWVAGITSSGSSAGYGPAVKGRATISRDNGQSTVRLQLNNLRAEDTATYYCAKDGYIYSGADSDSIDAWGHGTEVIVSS VL: ALTQPSSVSANPGETVEITCSGGSSDYGYGWYQQKSPGSAPVTVIYYNNNRPSDIPSRFSGSLSGSTNTLTITGVQADDEAVYFCGSRDSSSGYVDIFGAGTTLTVL",
    "value-type": "pEC50",
    "obs-value": 11.00
  }
]

Please examine the following record next.
# pEC50 of anti-CNTN4 IgG A35SF90 (antibody, V domains shown, human IgG4 (S228P)) VH: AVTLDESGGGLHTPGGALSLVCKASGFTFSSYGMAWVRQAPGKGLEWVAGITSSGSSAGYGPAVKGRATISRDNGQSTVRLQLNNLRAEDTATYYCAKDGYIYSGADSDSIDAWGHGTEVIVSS VL: ALTQPSSVSANLGGTVEITCSGSNNNNYGWYQQKTPGSAPVTLIYNNNQRPSDIPSRFSGSKSGSTGTLTITGVRAEDEAVYYCGGYDSSIYFDIFGAGTTLTVL = 11.00
